Reference source: patent US20220177587A1

Target: huCTLA4 (Homo sapiens, UniProt P16410)
Sequence (P16410 36-223): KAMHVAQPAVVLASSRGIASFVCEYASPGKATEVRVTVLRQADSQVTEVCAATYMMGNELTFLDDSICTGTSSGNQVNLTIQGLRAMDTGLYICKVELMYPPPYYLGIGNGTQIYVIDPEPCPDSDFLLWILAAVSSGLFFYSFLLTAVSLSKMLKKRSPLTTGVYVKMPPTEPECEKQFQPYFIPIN
Test: Flow binding to CHO cells stably expressing CTLA4
Parameters: huCTLA4 and huPD-L1, full-length mammalian surface expression constructs were generated; expressed in transfected cells; host or cells: CHO cells, lentiviral transduction, sorted to >98% purity
Settings: Table E11; 33.3 nM; listed as WT CD80 ECD-Fc = 1.0
So I've got a bunch of molecules here, and I need their CTLA4 Fold change to WT CD80 values.
Answers are plain numbers.

{"molecule": "T13R/Q33R/E35D/M47L/V68M (protein, CD80 v381 ECD) VIHVTKEVKEVARLSCGHNVSVEELAQTRIYWRKDKKMVLTMMSGDLNIWPEYKNRTIFDITNNLSIMILALRPSDEGTYECVVLKYEKDAFKREHLAEVTLSVKADFPTPSISDFETPTSNIRRIICSTSGGFPEPHLSWLENGEELNAINTTVSQDPETELYAVSSKLDFNMTTNHSFMCLIKYGHLRVNQTFNWNTTKQEHFPDN", "CTLA4 Fold change to WT CD80": 11.8}

Please look at the following molecule next.
Q. Request the reported CTLA4 Fold change to WT CD80 associated with H18Y/V22D/E35D/M47V/N48K/V68M (protein, UniProt P33681 35-288, looked up, variant H18Y V22D E35D M47V N48K V68M) T-lymphocyte activation …: VIHVTKEVKEVATLSCGYNVSDEELAQTRIYWQKDKKMVLTMMSGDVKIWPEYKNRTIFDITNNLSIMILALRPSDEGTYECVVLKYEKDAFKREHLAEVTLSVKADFPTPSISDFEIPTSNIRRIICSTSGGFPEPHLSWLENGEELNAINTTVSQDPETELYAVSSKLDFNMTTNHSFMCLIKYGHLRVNQTFNWNTTKQEHFPDNLLPSWAITLISVNGIFVICCLTYCFAPRCRERRRNERLRRESVRPV
A. 9.0
